Can you tell me Dose.FC.LYZ.S for the items I'm about to list?
Test system: ENR+CD organoids (ISC to Paneth cell differentiation)
Test: Primary screen: CCh-stimulated lysozyme secretion LYZ.S, 2.5-D 384-well ENR+CD organoid differentiation
Format: cell-based, mouse
Conditions: primary screen, dose 0.40 uM, FC relative to plate median
Structures can show the parent of a compound that is named as a salt.
Numbers only, in log2 fold change.

Past entries and their recorded results:
• N#CC[C@H](C1CCCC1)n1cc(-c2ncnc3[nH]ccc23)cn1 [Ruxolitinib (INCB018424), Ruxolitinib, reference compound] = 0.067
• C#CCN[C@@H]1CCc2ccccc21 [Rasagiline Mesylate] = 0.077
• COc1ccc(C2CNC(=O)C2)cc1OC1CCCC1 (centres unmarked) [Rolipram, reference compound] = 0.156
• Cc1cn([C@H]2C=C[C@@H](CO)O2)c(=O)[nH]c1=O [Stavudine (d4T)] = 0.001

Now let's try a different one.
Value of measured Dose.FC.LYZ.S for the entry Cc1cc(OCCCS(C)(=O)=O)cc(C)c1-c1cccc(COc2ccc3c(c2)OC[C@H]3CC(=O)O)c1 [TAK-875] : 0.014

---

Test system: ENR+CD organoids (ISC to Paneth cell differentiation)
Experiment: Primary screen: CCh-stimulated lysozyme secretion LYZ.S, 2.5-D 384-well ENR+CD organoid differentiation
Type: cell-based, mouse
Settings: primary screen; dose 0.40 uM; FC vs plate median
Can you tell me Dose.FC.LYZ.S for the items I'm about to list?
Give bare numbers, in log2 fold change.

Would you mind giving Dose.FC.LYZ.S for every compound in the list below?
1. OCCn1cc(-c2cnc3nnn(Cc4ccc5ncccc5c4)c3n2)cn1
2. CCCCCCCCCCCCCCCCn1cc[n+](Cc2ccccc2)c1C.[I-]
3. O=[N+]([O-])C=Cc1ccc2c(c1)OCO2
4. Nc1cccc2c1C(=O)N(C1CCC(=O)NC1=O)C2=O (stereo not drawn) [Pomalidomide]
5. CCc1c(C(=O)NCCc2ccc(N3CCCCC3)cc2)[nH]c2ccc(Cl)cc12
6. Cc1[nH]c2ccccc2c1CCNCc1ccc(/C=C/C(=O)NO)cc1

RESULT:
1: 0.265; 2: −0.237; 3: 0.100; 4: −0.082; 5: 0.032; 6: −0.042

---

System: ENR+CD organoids
Assay: Primary screen: ATP (CellTiter-Glo 3D, CTG) cell number/viability, 2.5-D 384-well ENR+CD organoids;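 further: compounds given at plating and again on day 3 over a 6-day differentiation from ENR+CV stem-cell-enriched precursors, ATP measured on day 6, plate median as control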
Conditions: primary screen, dose 0.08 uM
QUANTITY_KIND: Dose.FC.CTG (log2 fold change)
Answers are plain numbers, in log2 fold change.

Past entries and their recorded results:
• N#Cc1c(O)c2c(-c3ccc(-c4ccccc4O)cc3)csc2[nH]c1=O = −0.074
• COc1cc(N2CCC(N3CCN(C)CC3)CC2)ccc1Nc1ncc(Cl)c(Nc2ccccc2P(C)(C)=O)n1 = −0.054
• CO[C@H]1C[C@@H]2CC[C@@H](C)[C@@](O)(O2)C(=O)C(=O)N2CCCC[C@H]2C(=O)O[C@H]([C@H](C)C[C@@H]2CC[C@@H](OCCO)[C@H](OC)C2)CC(=O)[C@H](C)/C=C(\C)[C@@H](O)[C@@H](OC)C(=O)[C@H](C)C[C@H](C)/C=C/C=C/C=C/1C [Everolimus (RAD001)] = 0.392

Now let's try a different one.
Value of measured Dose.FC.CTG for the entry NC1(Cc2ccc(Cl)cc2)CCN(c2ncnc3[nH]ccc23)CC1 : 0.095
